Reference for the values: patent US20210230279A1

Biological target: T1, recombinant human integrin αvβ8 (human, UniProt P06756 31-992; P26012 43-684)
T1 construct: also called Human Integrin alpha V beta 8; purified recombinant αvβ8
T1 sequence (P06756 31-992 limits assumed, chain 1 of 2): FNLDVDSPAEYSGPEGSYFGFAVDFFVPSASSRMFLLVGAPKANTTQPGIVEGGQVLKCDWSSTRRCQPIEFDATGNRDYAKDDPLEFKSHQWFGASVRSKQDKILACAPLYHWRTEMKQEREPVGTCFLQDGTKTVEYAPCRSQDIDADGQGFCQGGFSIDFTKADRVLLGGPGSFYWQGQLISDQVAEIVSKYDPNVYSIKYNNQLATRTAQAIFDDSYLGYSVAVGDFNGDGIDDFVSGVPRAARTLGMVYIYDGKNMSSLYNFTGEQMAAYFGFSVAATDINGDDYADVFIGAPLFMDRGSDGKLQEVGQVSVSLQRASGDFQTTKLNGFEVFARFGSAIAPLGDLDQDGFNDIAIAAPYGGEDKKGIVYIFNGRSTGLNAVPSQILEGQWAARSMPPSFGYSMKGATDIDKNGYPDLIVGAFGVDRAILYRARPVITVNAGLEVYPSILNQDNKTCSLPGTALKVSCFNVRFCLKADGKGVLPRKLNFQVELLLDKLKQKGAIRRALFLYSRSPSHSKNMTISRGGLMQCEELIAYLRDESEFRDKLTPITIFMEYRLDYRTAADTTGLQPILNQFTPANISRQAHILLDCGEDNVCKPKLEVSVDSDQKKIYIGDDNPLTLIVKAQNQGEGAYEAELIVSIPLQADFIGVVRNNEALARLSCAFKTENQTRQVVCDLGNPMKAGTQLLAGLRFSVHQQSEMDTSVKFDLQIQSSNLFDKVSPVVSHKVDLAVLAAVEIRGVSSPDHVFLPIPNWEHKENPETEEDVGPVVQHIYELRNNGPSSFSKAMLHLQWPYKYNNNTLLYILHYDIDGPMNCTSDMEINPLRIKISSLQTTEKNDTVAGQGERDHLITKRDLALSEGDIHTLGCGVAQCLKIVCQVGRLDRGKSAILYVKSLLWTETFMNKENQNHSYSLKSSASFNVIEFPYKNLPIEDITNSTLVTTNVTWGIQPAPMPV
T1 sequence (P26012 43-684 limits assumed, chain 2 of 2): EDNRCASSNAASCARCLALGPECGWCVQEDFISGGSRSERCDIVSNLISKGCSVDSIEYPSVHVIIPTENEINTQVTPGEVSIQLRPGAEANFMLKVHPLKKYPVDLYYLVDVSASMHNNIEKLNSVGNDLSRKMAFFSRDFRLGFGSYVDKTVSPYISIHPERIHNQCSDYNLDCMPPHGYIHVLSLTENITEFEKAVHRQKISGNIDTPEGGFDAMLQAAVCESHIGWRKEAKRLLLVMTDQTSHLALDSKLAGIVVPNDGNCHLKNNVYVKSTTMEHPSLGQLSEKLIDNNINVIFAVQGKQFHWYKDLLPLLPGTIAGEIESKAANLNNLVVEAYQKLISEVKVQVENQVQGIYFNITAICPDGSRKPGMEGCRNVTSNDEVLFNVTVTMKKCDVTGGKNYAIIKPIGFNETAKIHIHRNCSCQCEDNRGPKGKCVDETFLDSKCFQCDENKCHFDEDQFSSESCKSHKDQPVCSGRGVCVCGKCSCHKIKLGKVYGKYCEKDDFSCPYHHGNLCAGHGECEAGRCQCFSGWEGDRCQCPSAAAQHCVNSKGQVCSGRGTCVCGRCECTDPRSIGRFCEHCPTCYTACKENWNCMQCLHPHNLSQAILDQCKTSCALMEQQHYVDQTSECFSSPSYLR
Test: ELISA: integrin coated on plate, supernatant of transfected 293 cells at 1/10 dilution, anti-mouse IgG-HRP; score normalized to expression;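 note: scale runs from 0 (no apparent binding) to 4 (robust binding), with scores adjusted for clone protein expression as determined by a murine IgG ELISA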
experimental readout: binding intensity score (0-4) (score 0-4)

1. C6 VH / RGD3-2 Vk murine IgG (antibody, V domains shown, Murine IgG, supernatant of 293 cells; CDRL1 swap into the C6D4 murine IgG vector, VH not altered; also called C6RGD3-2) VH: QIQLLQSGPELKKPGETVKISCKASGYTFTDYSMHWVKQAPGKGLKWVARINTETGEPTFADDFRGRFAVSLETSASTAYLQINNLKNEDTATYFCAIFYYGRDSWGQGTTLTVSS VL: DIVMTQSPSSLAVSAGEKVTMSCKSSQSLLGRGDLGRLKKQKDNALAWYQQKPGQSPRLLIYWASTRESGVPDRFTGSGSGTDFTLTISSVQAEDLAVYYCKQSYNLLSFGAGTKLELKR ... 4
2. C6 VH / RGD3-1 Vk murine IgG (antibody, V domains shown, Murine IgG, supernatant of 293 cells; CDRL1 swap into the C6D4 murine IgG vector, VH not altered; also called C6RGD3-1) VH: QIQLLQSGPELKKPGETVKISCKASGYTFTDYSMHWVKQAPGKGLKWVARINTETGEPTFADDFRGRFAVSLETSASTAYLQINNLKNEDTATYFCAIFYYGRDSWGQGTTLTVSS VL: DIVMTQSPSSLAVSAGEKVTMSCKSSQSLLGRGDLGRLKKQKDHNALAWYQQKPGQSPRLLIYWASTRESGVPDRFTGSGSGTDFTLTISSVQAEDLAVYYCKQSYNLLSFGAGTKLELKR ... 1
3. C6 VH / RGD3-8 Vk murine IgG (antibody, V domains shown, Murine IgG, supernatant of 293 cells; CDRL1 swap into the C6D4 murine IgG vector, VH not altered; also called C6RGD3-8) VH: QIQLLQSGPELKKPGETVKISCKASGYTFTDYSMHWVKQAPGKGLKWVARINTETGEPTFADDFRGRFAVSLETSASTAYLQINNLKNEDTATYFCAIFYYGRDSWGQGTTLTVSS VL: DIVMTQSPSSLAVSAGEKVTMSCKSSQSLLGRGDLGRNALAWYQQKPGQSPRLLIYWASTRESGVPDRFTGSGSGTDFTLTISSVQAEDLAVYYCKQSYNLLSFGAGTKLELKR ... 3
